All figures here come from ChEMBL document CHEMBL1141713.

assay: Inhibition of the ATP-mediated HIV1 reverse transcriptase D67N/K70R/T215F/K219Q mutant catalyzed 3'-azido, 3'-deoxythymidine excision from AZT-terminated DNA primers; parameters: species or system Human immunodeficiency virus 1
measured-property: pIC50

smiles-text	reported-result
CCCCCCCCC(O)(P(=O)(O)O)P(=O)(O)O	3.5
NCCCCCC(O)(P(=O)(O)O)P(=O)(O)O	3.5
O=P(O)(O)C(O)(Cc1cccc(-c2ccc(F)cc2)c1)P(=O)(O)O	5.7
CN(C)c1ccccc1CC(O)(P(=O)(O)O)P(=O)(O)O	4.3
O=P(O)(O)C(O)(Cc1cccc(Oc2ccccc2)c1)P(=O)(O)O	5.5
O=P(O)(O)C(O)(C[n+]1ccccc1)P(=O)(O)O	3.5
O=P(O)(O)C(O)(Cc1cccc(-c2cc(F)ccc2F)c1)P(=O)(O)O	5.8

* * *

test: Toxicity against human MCF7 cells assessed as growth inhibition by broth microdilution method; assay type: cell-based

smiles-text	IC50
O=P(O)(O)C(O)(Cc1ccc(-c2ccc(Cl)cc2)cc1)P(=O)(O)O	> 100 µM
Nc1ccccc1CC(O)(P(=O)(O)O)P(=O)(O)O	205 µM
O=P(O)(O)C(Nc1ccc(Cc2ccccc2)cc1)P(=O)(O)O	> 100 µM
O=P(O)(O)C(O)(Cc1ccc(Cl)c(Cl)c1)P(=O)(O)O	213 µM
O=P(O)(O)C(O)(Cc1cccc(-c2ccc(F)cc2)c1)P(=O)(O)O	173 µM
O=P(O)(O)C(O)(Cc1ccc(-c2ccc(F)cc2)cc1)P(=O)(O)O	> 300 µM
O=P(O)(O)C(Nc1cccc(Br)c1)P(=O)(O)O	> 300 µM
O=P(O)(O)C(Nc1cccc(-c2ccc(F)c(F)c2)c1)P(=O)(O)O	> 300 µM
Cc1ccc(NC(P(=O)(O)O)P(=O)(O)O)cc1-c1ccccc1	296 µM
O=P(O)(O)C(Nc1cccc(-c2ccc(F)cc2F)c1)P(=O)(O)O	> 300 µM
CN(C)c1ccccc1CC(O)(P(=O)(O)O)P(=O)(O)O	> 300 µM

* * *

# pIC50 per record follows
test: Inhibition of the ATP-mediated HIV1 reverse transcriptase D67N/K70R/T215F/K219Q mutant catalyzed 3'-azido, 3'-deoxythymidine excision from AZT-terminated DNA primers; parameters: species or system Human immunodeficiency virus 1
measured-property: pIC50

smiles-text	reported-result
COc1ccc(-c2ccc(CC(O)(P(=O)(O)O)P(=O)(O)O)cc2)cc1	5.3
O=P(O)(O)C(CNc1cccc(-c2ccccc2)c1)P(=O)(O)O	5
CCCCCCc1ccc(NC(P(=O)(O)O)P(=O)(O)O)cc1	3.5
O=P(O)(O)C(Nc1cccc(-c2ccc(F)c(F)c2)c1)P(=O)(O)O	5.7
O=P(O)(O)C(Nc1cccc(Br)c1)P(=O)(O)O	6
O=P(O)(O)C(CNc1ccc(-c2ccccc2)cc1)P(=O)(O)O	5.3

* * *

test: Toxicity against human SF268 cells assessed as growth inhibition by broth microdilution method; assay type: cell-based, SF-268
pIC50: −log10 of the molar value.
measured-property: pIC50

smiles-text	result-qualifier	reported-result
Cc1ccc(NC(P(=O)(O)O)P(=O)(O)O)cc1-c1ccccc1	=	3.53
O=P(O)(O)C(O)(Cc1cccc(-c2ccc(Cl)cc2)c1)P(=O)(O)O	=	4.32
O=P(O)(O)C(Nc1ccc(Cc2ccccc2)cc1)P(=O)(O)O	<	4.00
O=P(O)(O)C(O)(Cc1ccc(Cl)c(Cl)c1)P(=O)(O)O	=	3.68
CN(C)c1ccccc1CC(O)(P(=O)(O)O)P(=O)(O)O	<	3.52
O=P(O)(O)C(O)(Cc1cccc(-c2cc(F)ccc2F)c1)P(=O)(O)O	=	3.91
O=P(O)(O)C(O)(Cc1cccc(Oc2ccccc2)c1)P(=O)(O)O	=	3.75
O=P(O)(O)C(Nc1cccc(-c2ccc(F)cc2F)c1)P(=O)(O)O	<	3.52
O=P(O)(O)C(Nc1cccc(CO)c1)P(=O)(O)O	<	3.52
Nc1ccccc1CC(O)(P(=O)(O)O)P(=O)(O)O	=	3.73
O=P(O)(O)C(O)(Cc1cccc2ccccc12)P(=O)(O)O	=	3.65

* * *

assay: Toxicity against human NCI-H460 cells assessed as growth inhibition by broth microdilution method; assay type: cell-based
Each record here notes measured IC50.
measured-property: IC50 (µM)

smiles-text	measured-property	result-qualifier	reported-result
Nc1ccccc1CC(O)(P(=O)(O)O)P(=O)(O)O	IC50	=	187
O=P(O)(O)C(O)(Cc1ccc(-c2ccc(F)cc2)cc1)P(=O)(O)O	IC50	>	300
O=P(O)(O)C(O)(Cc1cccc(-c2cc(F)ccc2F)c1)P(=O)(O)O	IC50	=	141
O=P(O)(O)C(Nc1cccc(CO)c1)P(=O)(O)O	IC50	>	300
O=P(O)(O)C(CNc1ccc(-c2ccccc2)cc1)P(=O)(O)O	IC50	=	95
O=P(O)(O)C(O)(Cc1cccc2ccccc12)P(=O)(O)O	IC50	=	248
O=P(O)(O)C(Nc1cccc(Br)c1)P(=O)(O)O	IC50	>	300
COc1ccc(-c2cccc(CC(O)(P(=O)(O)O)P(=O)(O)O)c2)cc1	IC50	=	118
O=P(O)(O)C(O)(Cc1ccc(Cl)c(Cl)c1)P(=O)(O)O	IC50	=	241
O=P(O)(O)C(CNc1cccc(-c2ccccc2)c1)P(=O)(O)O	IC50	>	300
O=P(O)(O)C(Nc1cccc(-c2ccc(F)c(F)c2)c1)P(=O)(O)O	IC50	>	300
O=P(O)(O)C(O)(Cc1cccc(-c2ccc(Cl)cc2)c1)P(=O)(O)O	IC50	=	39
CN(C)c1ccccc1CC(O)(P(=O)(O)O)P(=O)(O)O	IC50	>	300
O=P(O)(O)C(Nc1cccc(-c2ccccc2)c1)P(=O)(O)O	IC50	=	253
O=P(O)(O)C(Nc1cccc(-c2cc(F)cc(F)c2)c1)P(=O)(O)O	IC50	>	100
O=P(O)(O)C(O)(Cc1ccc(-c2ccc(Cl)cc2)cc1)P(=O)(O)O	IC50	>	100
O=P(O)(O)C(O)(Cc1cccc(Oc2ccccc2)c1)P(=O)(O)O	IC50	=	212
COc1cccc(CC(O)(P(=O)(O)O)P(=O)(O)O)c1	IC50	>	300

* * *

Catalogue of molecules with associated IC50
assay: Inhibition of the ATP-mediated HIV1 reverse transcriptase D67N/K70R/T215F/K219Q mutant catalyzed 3'-azido, 3'-deoxythymidine excision from AZT-terminated DNA primers; parameters: species or system Human immunodeficiency virus 1
measured-property: IC50 (µM)

smiles-text	measured-property	reported-result
COc1ccc(-c2ccc(CC(O)(P(=O)(O)O)P(=O)(O)O)cc2)cc1	IC50	5.2
CCCCCCc1ccc(NC(P(=O)(O)O)P(=O)(O)O)cc1	IC50	302
O=P(O)(O)C(O)(Cc1cccc2ccccc12)P(=O)(O)O	IC50	1.3
Nc1ccccc1CC(O)(P(=O)(O)O)P(=O)(O)O	IC50	38
O=P(O)(O)C(Nc1ccc(Cc2ccccc2)cc1)P(=O)(O)O	IC50	3.5
O=P(O)(O)C(O)(C[n+]1ccccc1)P(=O)(O)O	IC50	302
COc1cccc(CC(O)(P(=O)(O)O)P(=O)(O)O)c1	IC50	5.4
O=P(O)(O)C(CNc1ccc(-c2ccccc2)cc1)P(=O)(O)O	IC50	4.6
O=P(O)(O)C(Nc1cccc(Br)c1)P(=O)(O)O	IC50	1
O=P(O)(O)C(O)(Cc1cccc(Oc2ccccc2)c1)P(=O)(O)O	IC50	3.3
CN(C)c1ccccc1CC(O)(P(=O)(O)O)P(=O)(O)O	IC50	51.3
NCCCCCC(O)(P(=O)(O)O)P(=O)(O)O	IC50	302
CCCCCCCCCCCC(O)(P(=O)(O)O)P(=O)(O)O	IC50	302
CCCCCCCCCC(O)(P(=O)(O)O)P(=O)(O)O	IC50	302
O=P(O)(O)C(O)(Cc1ccccc1)P(=O)(O)O	IC50	302
CCCCCCCCC(O)(P(=O)(O)O)P(=O)(O)O	IC50	302
O=P(O)(O)C(Nc1cccc(-c2ccc(F)cc2F)c1)P(=O)(O)O	IC50	3.9
Cc1ccc(NC(P(=O)(O)O)P(=O)(O)O)cc1-c1ccccc1	IC50	5
O=P(O)(O)C(O)(Cc1cccc(-c2cc(F)ccc2F)c1)P(=O)(O)O	IC50	1.5
CCCCCCCc1ccc(NC(P(=O)(O)O)P(=O)(O)O)cc1	IC50	302
COc1ccc(-c2cccc(CC(O)(P(=O)(O)O)P(=O)(O)O)c2)cc1	IC50	2.4
O=P(O)(O)C(Nc1cccc(CO)c1)P(=O)(O)O	IC50	7.9
O=P(O)(O)C(O)(Cc1cccc(-c2ccc(F)c(F)c2)c1)P(=O)(O)O	IC50	1
CN(CCCc1ccccc1)CCC(O)(P(=O)(O)O)P(=O)(O)O	IC50	302

* * *

Catalogue of compounds with associated IC50
assay: Toxicity against human MCF7 cells assessed as growth inhibition by broth microdilution method; assay type: cell-based
measured-property: IC50 (µM)

smiles-text	unit-spec	result-qualifier	reported-result
O=P(O)(O)C(O)(Cc1cccc2ccccc12)P(=O)(O)O	µM	=	259
O=P(O)(O)C(O)(Cc1cccc(-c2ccc(Cl)cc2)c1)P(=O)(O)O	µM	=	41
O=P(O)(O)C(CNc1ccc(-c2ccccc2)cc1)P(=O)(O)O	µM	=	84
O=P(O)(O)C(CNc1cccc(-c2ccccc2)c1)P(=O)(O)O	µM	>	300
O=P(O)(O)C(Nc1cccc(-c2cc(F)cc(F)c2)c1)P(=O)(O)O	µM	>	100
COCc1cccc(NC(P(=O)(O)O)P(=O)(O)O)c1	µM	>	300
O=P(O)(O)C(Nc1cccc(CO)c1)P(=O)(O)O	µM	>	300
O=P(O)(O)C(O)(Cc1cccc(Oc2ccccc2)c1)P(=O)(O)O	µM	=	188
COc1ccc(-c2cccc(CC(O)(P(=O)(O)O)P(=O)(O)O)c2)cc1	µM	=	128
O=P(O)(O)C(O)(Cc1cccc(-c2cc(F)ccc2F)c1)P(=O)(O)O	µM	=	165
O=P(O)(O)C(O)(Cc1cccc(-c2ccc(F)c(F)c2)c1)P(=O)(O)O	µM	=	225
COc1cccc(CC(O)(P(=O)(O)O)P(=O)(O)O)c1	µM	>	300
O=P(O)(O)C(Nc1cccc(-c2ccccc2)c1)P(=O)(O)O	µM	=	289
